Target: h-P2Y2 (Homo sapiens)
Construct: host or cells: human 1321N1 astrocytoma cells, stably transfected
Sequence (P41231 whole entry): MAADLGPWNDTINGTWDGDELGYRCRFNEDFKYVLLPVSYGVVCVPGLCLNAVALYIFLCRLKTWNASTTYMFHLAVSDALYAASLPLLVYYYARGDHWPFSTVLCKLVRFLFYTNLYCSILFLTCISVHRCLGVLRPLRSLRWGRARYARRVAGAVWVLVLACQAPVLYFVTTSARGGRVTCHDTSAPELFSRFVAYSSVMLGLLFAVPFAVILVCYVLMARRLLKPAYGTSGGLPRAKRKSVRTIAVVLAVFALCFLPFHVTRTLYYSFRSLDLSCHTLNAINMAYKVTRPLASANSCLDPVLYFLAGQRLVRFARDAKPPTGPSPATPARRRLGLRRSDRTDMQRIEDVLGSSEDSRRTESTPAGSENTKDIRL
Assay: Calcium mobilization assay, h-P2Y2 transfected 1321N1 astrocytoma cells
Format: cell-based
Settings: 1321-N1; final conc of 100 μM; 500 μM ATP
// label = 1 if inhibition at 100 µM is not less than 40%, otherwise -1

molecule | label
O=C(NS(=O)(=O)c1ccc([N+](=O)[O-])cc1)n1c(Cl)nc2ccccc21 [1t] | 1
Cc1ccc(S(=O)(=O)NC(=O)n2c(N)nc3cc([N+](=O)[O-])ccc32)cc1 [1b] | -1
Nc1nc2cc([N+](=O)[O-])ccc2n1C(=O)NS(=O)(=O)c1cc(Cl)cc(Cl)c1O [1a] | 1
O=C(NS(=O)(=O)c1ccc(-c2ccccc2)cc1)n1c(Cl)nc2ccccc21 [1r] | 1
COc1ccc(S(=O)(=O)NC(=O)n2c(OC)nc3ccccc32)cc1 [1u] | -1

----------
Target: h-P2Y2 (Homo sapiens)
Construct: host or cells: human 1321N1 astrocytoma cells, stably transfected
Test: Calcium mobilization assay, h-P2Y2 transfected 1321N1 astrocytoma cells
Type: cell-based

compound | IC50
Nc1c(S(=O)(=O)O)cc(Nc2ccc(Nc3nc(Cl)nc(Nc4cccc(S(=O)(=O)O)c4)n3)c(S(=O)(=O)O)c2)c2c1C(=O)c1ccccc1C2=O [Reactive Blue 2, reference compound] | 0.57 µM
Cc1ccc([N+](=O)[O-])cc1S(=O)(=O)NC(=O)n1c(N)nc2cc([N+](=O)[O-])ccc21 | 6.32 µM

----------
Assay: MTT assay, HeLa
Assay type: cell-based
Details: human, HeLa cells; at 50 µM; triplicate; read-out: HeLa Cell Line (%cytotoxicity ±SEM)

molecular-string | cytotoxicity at 24 h, 50 µM, %
Nc1nc2cc(Cl)ccc2n1C(=O)NS(=O)(=O)c1ccc(Cl)cc1 | 39.3
O=C(NS(=O)(=O)c1ccc([N+](=O)[O-])cc1)n1c(-c2ccccc2)nc2ccccc21 | 24.3
Nc1nc2cc(Cl)ccc2n1C(=O)NS(=O)(=O)c1ccc([N+](=O)[O-])cc1 | 21.7

----------
Experiment: MTT assay, HeLa
Type: cell-based
Conditions: human, HeLa cells; at 50 µM; triplicate; read-out: HeLa Cell Line (%cytotoxicity ±SEM)
quantity: cytotoxicity at 24 h, 50 µM (%)

molecule | quantity | u | value-reported
Nc1nc2cc([N+](=O)[O-])ccc2n1C(=O)NS(=O)(=O)c1cc(Cl)cc(Cl)c1O [1a] | cytotoxicity at 24 h, 50 µM | % | 22.2
Cc1ccc([N+](=O)[O-])cc1S(=O)(=O)NC(=O)n1c(N)nc2cc([N+](=O)[O-])ccc21 [1c] | cytotoxicity at 24 h, 50 µM | % | 26.4
O=C(NS(=O)(=O)c1ccc(-c2ccccc2)cc1)n1c(Cl)nc2ccccc21 [1r] | cytotoxicity at 24 h, 50 µM | % | 26.5
Cc1ccc([N+](=O)[O-])cc1S(=O)(=O)NC(=O)n1c(N)nc2ccccc21 [1g] | cytotoxicity at 24 h, 50 µM | % | 11.6
COc1ccc(S(=O)(=O)NC(=O)n2c(OC)nc3ccccc32)cc1 [1u] | cytotoxicity at 24 h, 50 µM | % | 21.7
O=C(NS(=O)(=O)c1ccc(Cl)cc1)n1c(Cl)nc2ccccc21 [1s] | cytotoxicity at 24 h, 50 µM | % | 19.5
Nc1nc2ccccc2n1C(=O)NS(=O)(=O)c1ccc(Cl)cc1 [1f] | cytotoxicity at 24 h, 50 µM | % | 16.4
COc1nc2ccccc2n1C(=O)NS(=O)(=O)c1ccc(Cl)cc1 [1v] | cytotoxicity at 24 h, 50 µM | % | 24.1
O=C(NS(=O)(=O)c1ccccc1)n1c(Cl)nc2ccccc21 [1q] | cytotoxicity at 24 h, 50 µM | % | 29.7
Cc1ccc(S(=O)(=O)NC(=O)n2c(N)nc3ccccc32)cc1 [1w] | cytotoxicity at 24 h, 50 µM | % | 21.3
O=C(NS(=O)(=O)c1ccccc1)n1c(-c2ccccc2)nc2ccccc21 [1m] | cytotoxicity at 24 h, 50 µM | % | 39.4
Cc1ccc([N+](=O)[O-])cc1S(=O)(=O)NC(=O)n1c(N)nc2cc(Cl)ccc21 [1j] | cytotoxicity at 24 h, 50 µM | % | 26.1
Nc1nc2ccccc2n1C(=O)NS(=O)(=O)c1cc(Cl)cc(Cl)c1O [1e] | cytotoxicity at 24 h, 50 µM | % | 21.3
O=C(NS(=O)(=O)c1ccc([N+](=O)[O-])cc1)n1c(Cl)nc2ccccc21 [1t] | cytotoxicity at 24 h, 50 µM | % | 20.3
O=C(NS(=O)(=O)c1ccc(-c2ccccc2)cc1)n1c(-c2ccccc2)nc2ccccc21 [1l] | cytotoxicity at 24 h, 50 µM | % | 28.3
Cc1ccc(C(=O)Nc2ccc(S(=O)(=O)O)c3cc(S(=O)(=O)O)cc(S(=O)(=O)O)c23)cc1NC(=O)c1cccc(NC(=O)Nc2cccc(C(=O)Nc3cc(C(=O)Nc4ccc(S(=O)(=O)O)c5cc(S(=O)(=O)O)cc(S(=O)(=O)O)c45)ccc3C)c2)c1 [Suramin, reference compound] | cytotoxicity at 24 h, 50 µM | % | 37.5
Nc1nc2cc(Cl)ccc2n1C(=O)NS(=O)(=O)c1cc(Cl)cc(Cl)c1O [1h] | cytotoxicity at 24 h, 50 µM | % | 22.3

----------
Assay: MTT assay, non-transfected 1321N1 astrocytoma cells
Assay type: cell-based, human
Conditions: human, non-transfected 1321N1 astrocytoma cells; at 50 µM; non-transfected astrocytoma 1321N1 cells; triplicate; read-out: H-1321N1 Cell Line (%cytotoxicity ±SEM)

molecular-string | cytotoxicity at 24 h, 50 µM, %
O=C(NS(=O)(=O)c1ccc(-c2ccccc2)cc1)n1c(Cl)nc2ccccc21 | 31.5
COc1nc2ccccc2n1C(=O)NS(=O)(=O)c1ccc(Cl)cc1 | 19.7
O=C(NS(=O)(=O)c1ccccc1)n1c(-c2ccccc2)nc2ccccc21 | 37.9

----------
Test: MTT assay, HEK-293
Assay type: cell-based
Details: human, HEK-293 cells; at 50 µM; triplicate; read-out: HEK-293 Cell Line (%cytotoxicity ±SEM)
// values below are reported cytotoxicity at 24 h, 50 µM

compound | u | cytotoxicity at 24 h, 50 µM
O=C(NS(=O)(=O)c1ccc([N+](=O)[O-])cc1)n1c(-c2ccccc2)nc2ccccc21 [1o] | % | 27.9
Nc1nc2ccccc2n1C(=O)NS(=O)(=O)c1ccc(Cl)cc1 [1f] | % | 21.2
O=C(NS(=O)(=O)c1ccc([N+](=O)[O-])cc1)n1c(Cl)nc2ccccc21 [1t] | % | 21.4
Cc1ccc(S(=O)(=O)NC(=O)n2c(N)nc3cc([N+](=O)[O-])ccc32)cc1 [1b] | % | 21.3
O=C(NS(=O)(=O)c1ccc(-c2ccccc2)cc1)n1c(-c2ccccc2)nc2ccccc21 [1l] | % | 21.3

----------
Biological target: h-P2Y4 (Homo sapiens, UniProt P51582)
Construct: host or cells: human 1321N1 astrocytoma cells, stably transfected
Sequence (P51582 whole entry): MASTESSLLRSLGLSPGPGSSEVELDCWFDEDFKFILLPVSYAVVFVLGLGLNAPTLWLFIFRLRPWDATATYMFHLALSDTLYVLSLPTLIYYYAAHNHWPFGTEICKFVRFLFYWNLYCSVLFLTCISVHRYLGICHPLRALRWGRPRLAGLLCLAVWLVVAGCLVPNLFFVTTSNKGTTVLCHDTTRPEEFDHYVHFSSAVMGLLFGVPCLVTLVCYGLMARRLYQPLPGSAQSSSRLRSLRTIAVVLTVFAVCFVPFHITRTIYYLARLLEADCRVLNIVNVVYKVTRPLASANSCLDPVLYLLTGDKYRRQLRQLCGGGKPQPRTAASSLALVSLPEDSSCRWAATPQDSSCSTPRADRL
Test: Calcium mobilization assay, h-P2Y4 transfected 1321N1 astrocytoma cells
Type: cell-based
Details: 1321-N1; final conc of 100 μM; 500 μM UTP; read-out: % Inhibition h-P2Y4
Category scheme (inhibition at 100 µM): band A: < 20%; band B: ≥ 20% and < 40%; band C: ≥ 40%

compound | label
O=C(NS(=O)(=O)c1ccc([N+](=O)[O-])cc1)n1c(-c2ccccc2)nc2ccccc21 [1o] | band C
O=C(NS(=O)(=O)c1ccc([N+](=O)[O-])cc1)n1c(Cl)nc2ccccc21 [1t] | band B
Cc1ccc([N+](=O)[O-])cc1S(=O)(=O)NC(=O)n1c(N)nc2ccccc21 [1g] | band A
Cc1ccc(S(=O)(=O)NC(=O)n2c(N)nc3cc([N+](=O)[O-])ccc32)cc1 [1b] | band A
Nc1nc2ccccc2n1C(=O)NS(=O)(=O)c1ccc(Cl)cc1 [1f] | band C
COc1ccc(S(=O)(=O)NC(=O)n2c(OC)nc3ccccc32)cc1 [1u] | band B
Nc1nc2ccccc2n1C(=O)NS(=O)(=O)c1ccc(-c2ccccc2)cc1 [1y] | band A
O=C(NS(=O)(=O)c1ccccc1)n1c(-c2ccccc2)nc2ccccc21 [1m] | band A
O=C(NS(=O)(=O)c1ccc(-c2ccccc2)cc1)n1c(Cl)nc2ccccc21 [1r] | band B
Cc1ccc([N+](=O)[O-])cc1S(=O)(=O)NC(=O)n1c(N)nc2cc(Cl)ccc21 [1j] | band C
O=C(NS(=O)(=O)c1ccc(-c2ccccc2)cc1)n1c(-c2ccccc2)nc2ccccc21 [1l] | band B

----------
Molecular target: r-P2Y6 (Rattus norvegicus)
Construct: host or cells: human 1321N1 astrocytoma cells, stably transfected
Sequence (Q63371 whole entry): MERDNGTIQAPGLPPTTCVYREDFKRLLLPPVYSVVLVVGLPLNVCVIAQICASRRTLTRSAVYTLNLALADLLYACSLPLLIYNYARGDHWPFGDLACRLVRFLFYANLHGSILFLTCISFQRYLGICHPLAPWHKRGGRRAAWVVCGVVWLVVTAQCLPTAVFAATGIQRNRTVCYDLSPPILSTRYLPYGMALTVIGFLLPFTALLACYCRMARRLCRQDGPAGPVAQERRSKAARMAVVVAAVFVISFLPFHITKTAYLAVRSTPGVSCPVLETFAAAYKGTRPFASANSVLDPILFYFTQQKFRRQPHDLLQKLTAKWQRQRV
Experiment: Calcium mobilization assay, r-P2Y6 transfected 1321N1 astrocytoma cells
Type: cell-based
Conditions: Ca2+ mobilization inhibition, transfected 1321N1 cells, 100 μM of UDP; read-out: IC50 ± SEM r-P2Y6
pIC50: −log10 of the molar value.

molecular-string | test-system | pIC50
Cc1ccc([N+](=O)[O-])cc1S(=O)(=O)NC(=O)n1c(N)nc2cc(Cl)ccc21 | r-P2Y6 (Rattus norvegicus) | 4.60
Nc1nc2ccccc2n1C(=O)NS(=O)(=O)c1ccc(Cl)cc1 | r-P2Y6 (Rattus norvegicus) | 5.03
Nc1nc2cc([N+](=O)[O-])ccc2n1C(=O)NS(=O)(=O)c1cc(Cl)cc(Cl)c1O | r-P2Y6 (Rattus norvegicus) | 6.18
Nc1nc2ccccc2n1C(=O)NS(=O)(=O)c1cc(Cl)cc(Cl)c1O | r-P2Y6 (Rattus norvegicus) | 6.12

Source listed as paper PMC10250618.
